MEASURED TARGET: T1, hPRLR.mFc (soluble dimeric human PRLR) (Homo sapiens, UniProt P16471)
T1 construct: dimeric (hPRLR.mFc)
T1 sequence (P16471 with tags, fused parts or gaps): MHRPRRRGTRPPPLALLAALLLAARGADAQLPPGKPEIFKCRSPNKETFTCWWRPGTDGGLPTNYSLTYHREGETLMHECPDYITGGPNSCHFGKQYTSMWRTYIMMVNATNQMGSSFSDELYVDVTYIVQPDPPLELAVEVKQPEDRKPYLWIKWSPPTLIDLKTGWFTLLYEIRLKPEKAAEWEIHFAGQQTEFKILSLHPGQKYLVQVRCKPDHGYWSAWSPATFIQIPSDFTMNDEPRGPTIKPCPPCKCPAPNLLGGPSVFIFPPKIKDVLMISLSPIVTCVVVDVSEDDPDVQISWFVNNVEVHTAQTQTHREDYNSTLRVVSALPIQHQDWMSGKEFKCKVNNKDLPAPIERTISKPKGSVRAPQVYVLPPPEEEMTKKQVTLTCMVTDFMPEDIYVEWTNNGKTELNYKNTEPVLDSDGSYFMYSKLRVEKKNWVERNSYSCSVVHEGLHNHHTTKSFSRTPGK
TEST DETAILS: Surface plasmon resonance (Biacore T200), mAb-capture format
Format: binding
CONDITION DETAILS: 25° C., antibody-capture format, analyte hPRLR.mFc
Give measured T½ for each item. Keep answers brief.
# unit: h | format: bare number

Query :: Given the molecule H1H6976N: human IgG1 Fc form of H2M6976N; anti-PRLR; HCVR/LCVR SEQ ID NOs 386/394 (antibody, V domains shown, human IgG1 Fc) VH: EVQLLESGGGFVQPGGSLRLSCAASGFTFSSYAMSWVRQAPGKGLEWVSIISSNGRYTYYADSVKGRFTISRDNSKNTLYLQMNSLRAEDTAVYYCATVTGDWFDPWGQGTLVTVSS VL: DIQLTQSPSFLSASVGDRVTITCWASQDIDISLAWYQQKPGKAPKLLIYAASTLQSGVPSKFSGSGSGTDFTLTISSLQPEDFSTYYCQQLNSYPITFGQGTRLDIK , what is its reported T½?
Result :: 1.907

Query :: Try this molecule too: H1H6966N: human IgG1 Fc form of H2M6966N; anti-PRLR; HCVR/LCVR SEQ ID NOs 338/346 (antibody, V domains shown, human IgG1 Fc) VH: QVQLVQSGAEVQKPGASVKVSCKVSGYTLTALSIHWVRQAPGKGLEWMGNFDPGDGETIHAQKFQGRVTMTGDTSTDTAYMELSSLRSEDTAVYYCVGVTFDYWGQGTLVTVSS VL: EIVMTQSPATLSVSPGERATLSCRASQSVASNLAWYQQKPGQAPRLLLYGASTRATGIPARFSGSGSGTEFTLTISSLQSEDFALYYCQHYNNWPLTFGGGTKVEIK
Result :: 4.715

Query :: Try this molecule too: H1H6785P: anti-PRLR antibody, human IgG1 Fc; HCVR/LCVR SEQ ID NOs 98/106 (antibody, V domains shown, human IgG1 Fc) VH: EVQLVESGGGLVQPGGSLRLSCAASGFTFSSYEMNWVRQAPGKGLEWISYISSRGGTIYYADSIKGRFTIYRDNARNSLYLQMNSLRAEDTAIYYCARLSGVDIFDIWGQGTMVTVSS VL: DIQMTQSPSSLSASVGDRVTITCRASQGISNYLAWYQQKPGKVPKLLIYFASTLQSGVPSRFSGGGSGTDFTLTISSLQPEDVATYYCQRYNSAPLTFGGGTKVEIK
Result :: 3.17

Query :: Try this molecule too: H1H6765P: anti-PRLR antibody, human IgG1 Fc; HCVR/LCVR SEQ ID NOs 18/26 (antibody, V domains shown, human IgG1 Fc) VH: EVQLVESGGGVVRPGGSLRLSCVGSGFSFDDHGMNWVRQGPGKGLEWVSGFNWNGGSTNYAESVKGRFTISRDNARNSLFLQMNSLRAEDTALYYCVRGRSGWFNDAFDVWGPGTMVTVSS VL: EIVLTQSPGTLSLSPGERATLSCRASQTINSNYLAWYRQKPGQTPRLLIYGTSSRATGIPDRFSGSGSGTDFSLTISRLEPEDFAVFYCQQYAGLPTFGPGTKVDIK
Result :: 5.65
